FYI, the data here is from the nanobody polyreactivity screen of Harvey et al. (2022).

# MEASUREMENT_PROTOCOL: yeast display, Sf9 membrane polyspecificity reagent, FACS + sequencing; frameworks hold sequencing errors
READOUT_KIND: polyreactivity (PSR sort gate)

QVQLVESGGGLVQAGGSLRLSCAASGRIFQKYAMGWYRQAPGKERELVAAISSGDSTYADSVKGRFTISRDNAKNTVYLQMNSLKPEDTAVYYCAVDLYDPWWYSYIGEYEYWGQGTQVTVSS; low polyreactivity
QVQLVESGGGLVQAGGSLRISSAASGRTFGPYAIGWYRQAPGKESELVAAITSSGGSTYYADSVKGRFTISRDTAKNTFYLQMNSLKPEDTAVYYCNKLYWRESPDYDYWGQGTQVTVSS; low polyreactivity
